- Test system: CCRIS mutagenicity, Ames/micronucleus/aberration tests
- EXPERIMENTAL DETAILS: CCRIS mutagenicity studies
- PROTOCOL CONDITIONS: Test System: AMES SALMONELLA TYPHIMURIUM; Strain/Indicator: TA100; Metabolic Activation: RAT, LIVER, S-9, AROCLOR 1254 (10%); Method: STANDARD PLATE
Active and inactive are the calls of the source. No rule for the calls is given here.
PROPERTY: mutagenic call

INSERT INTO assay_data (molecule, system_under_test, property, reported) VALUES
  ('CC(O)CN1CC(C)OC1=O (stereo not drawn)', 'CCRIS mutagenicity, Ames/micronucleus/aberration tests', 'mutagenic call', 'inactive; negative'),
  ('c1ccc2c(c1)cc1sc3cccc4ccc2c1c43', 'CCRIS mutagenicity, Ames/micronucleus/aberration tests', 'mutagenic call', 'inactive; negative'),
  ('C=C[Si](C)(C)CCl', 'CCRIS mutagenicity, Ames/micronucleus/aberration tests', 'mutagenic call', 'inactive; negative');

----------
- Tested on: CCRIS mutagenicity, Ames/micronucleus/aberration tests
- EXPERIMENTAL DETAILS: CCRIS mutagenicity studies
- PROTOCOL CONDITIONS: Test System: AMES SALMONELLA TYPHIMURIUM; Strain/Indicator: TA98; Metabolic Activation: NONE; Method: PREINCUBATION
Activity calls are given as the source filed them. No rule for the calls is given here.
PROPERTY: mutagenic call

INSERT INTO measurements (compound_structure, system_under_test, property, reported) VALUES
  ('Nc1cccc(-c2ccccc2)c1', 'CCRIS mutagenicity, Ames/micronucleus/aberration tests', 'mutagenic call', 'inactive; negative'),
  ('CC(C)CO', 'CCRIS mutagenicity, Ames/micronucleus/aberration tests', 'mutagenic call', 'inactive; negative'),
  ('O=C(CCl)NCO', 'CCRIS mutagenicity, Ames/micronucleus/aberration tests', 'mutagenic call', 'inactive; negative');

----------
- System: CCRIS mutagenicity, Ames/micronucleus/aberration tests
- EXPERIMENTAL DETAILS: CCRIS mutagenicity studies
- PROTOCOL CONDITIONS: Test System: E. COLI; Strain/Indicator: WP2 UVRA; Metabolic Activation: NONE; Method: STANDARD PLATE
Activity calls are given as the source filed them. No rule for the calls is given here.
Outcomes: 1.0 = active, 0.0 = inactive

INSERT INTO assay_data (compound, system_under_test, class_name) VALUES
  ('CCC1CO1 (stereo unspecified)', 'CCRIS mutagenicity, Ames/micronucleus/aberration tests', 0.0),
  ('CC(=O)Oc1ccccc1C(=O)O', 'CCRIS mutagenicity, Ames/micronucleus/aberration tests', 0.0),
  ('CCC(=O)C1c2cccc(O)c2C(=O)c2c(O)cccc21', 'CCRIS mutagenicity, Ames/micronucleus/aberration tests', 0.0),
  ('c1ccc(C2CO2)cc1 (stereo unspecified)', 'CCRIS mutagenicity, Ames/micronucleus/aberration tests', 1.0),
  ('C/C(=C(/OCCOc1ccc(Cl)cc1)c1ccc(Cl)cc1Cl)n1ccnc1', 'CCRIS mutagenicity, Ames/micronucleus/aberration tests', 0.0),
  ('COc1ccc(N)cc1N', 'CCRIS mutagenicity, Ames/micronucleus/aberration tests', 0.0),
  ('O=C(O)C(Cl)Cl', 'CCRIS mutagenicity, Ames/micronucleus/aberration tests', 0.0),
  ('CCOCC(O)COc1ccc(NC(=O)CC[S+](C)C)cc1 (stereo unspecified)', 'CCRIS mutagenicity, Ames/micronucleus/aberration tests', 0.0),
  ('CC(=O)OCC1=CO[C@@H](OC(=O)CC(C)C)[C@H]2C1=C[C@H](OC(=O)CC(C)C)[C@]21CO1', 'CCRIS mutagenicity, Ames/micronucleus/aberration tests', 1.0),
  ('CC(C)n1c(/C=C/[C@H](O)C[C@H](O)CC(=O)O)c(-c2ccc(F)cc2)c2ccccc21', 'CCRIS mutagenicity, Ames/micronucleus/aberration tests', 0.0),
  ('NCCCC[C@H](N[C@@H](CCc1ccccc1)C(=O)O)C(=O)N1CCC[C@H]1C(=O)O', 'CCRIS mutagenicity, Ames/micronucleus/aberration tests', 0.0),
  ('N=C1C=CC(=C(c2ccc(N)cc2)c2ccc(N)cc2)C=C1', 'CCRIS mutagenicity, Ames/micronucleus/aberration tests', 0.0),
  ('COc1ccc(CNCC(O)COc2ccc3[nH]c(=O)ccc3c2)cc1OC (stereo unspecified)', 'CCRIS mutagenicity, Ames/micronucleus/aberration tests', 0.0),
  ('CC(C)Oc1ccc2c(=O)c(-c3ccccc3)coc2c1', 'CCRIS mutagenicity, Ames/micronucleus/aberration tests', 0.0),
  ('NC(=O)c1cc(N2CC2)c([N+](=O)[O-])cc1[N+](=O)[O-]', 'CCRIS mutagenicity, Ames/micronucleus/aberration tests', 1.0),
  ('O=C1[C@H]2CC=CC[C@H]2C(=O)N1SC(Cl)(Cl)Cl', 'CCRIS mutagenicity, Ames/micronucleus/aberration tests', 1.0);
